Known pEC50 of a selection of molecules
# Tested on: genotype 1b (Con-1) HCV replicon in Huh-7 cells
# method-description: HCV replicon luciferase assay
# Type: cell-based
# run-parameters: Hepatitis C virus, Huh-7, 72 h, 1b replicon, Renilla luciferase, 3 days incubation
pEC50: −log10 of the molar value.
measure: pEC50

>>> print(df.to_string())
                                    molecule                               test_system  measure  endpoint_value
 0  CNC(=O)c1c(-c2ccc(F)cc2)oc2ncc(-c3ccc(F)c(C(=O)NC45CC(C4)C5)c3)cc12  genotype 1b (Con-1) HCV replicon in Huh-7 cells    pEC50            7.30
 1  CNC(=O)c1c(-c2ccc(F)cc2)oc2nc(N(CC(F)(F)F)S(C)(=O)=O)c(-c3cccc(C(=O)NC45CC(C4)C5)c3)cc12  genotype 1b (Con-1) HCV replicon in Huh-7 cells    pEC50            7.70
 2  CNC(=O)c1c(-c2ccc(F)cc2)oc2cc([N+](=O)[O-])c(-c3cccc(C(=O)NC45CC(C4)C5)c3)c(F)c12  genotype 1b (Con-1) HCV replicon in Huh-7 cells    pEC50            6.77
 3  CNC(=O)c1c(-c2ccc(F)cc2)oc2cc(CCC(F)(F)F)c(-c3cccc(C(=O)NC45CC(C4)C5)c3)cc12  genotype 1b (Con-1) HCV replicon in Huh-7 cells    pEC50            7.52
 4  CNC(=O)c1c(-c2ccc(F)cc2)oc2cc(CCNC(=O)OC)c(-c3cccc(C(=O)NC45CC(C4)C5)c3)cc12  genotype 1b (Con-1) HCV replicon in Huh-7 cells    pEC50            7.70
 5  CNC(=O)c1c(-c2ccc(F)cc2)oc2nc(NCC(F)(F)F)c(-c3cnc(OC)c(C(=O)NC45CC(C4)C5)c3)cc12  genotype 1b (Con-1) HCV replicon in Huh-7 cells    pEC50            8.24
 6  CCC(C)c1cc2oc(-c3ccc(F)cc3)c(C(=O)NC)c2cc1-c1cccc(C(=O)NC23CC(C2)C3)c1 (stereo not drawn) [drawing 304]  genotype 1b (Con-1) HCV replicon in Huh-7 cells    pEC50            8.00
 7  CNC(=O)c1c(-c2ccc(F)cc2)oc2cc(CS(C)(=O)=O)c(-c3cccc(C(=O)NC45CC(C4)C5)c3)cc12  genotype 1b (Con-1) HCV replicon in Huh-7 cells    pEC50            7.15
 8  CNC(=O)c1c(-c2ccc(F)cc2)oc2nc(NCC(F)(F)F)c(-c3ccc(F)c(C(=O)NC45CC(C4)C5)c3)cc12  genotype 1b (Con-1) HCV replicon in Huh-7 cells    pEC50            8.36
 9  CCCc1cc2oc(-c3ccc(F)cc3)c(C(=O)NC)c2cc1-c1ccc(F)c(C(=O)NC23CC(C2)C3)c1  genotype 1b (Con-1) HCV replicon in Huh-7 cells    pEC50            8.06
10  CNC(=O)c1c(-c2ccc(F)cc2)oc2cc(OCC(F)(F)F)c(-c3cccc(C(=O)NC45CC(C4)C5)c3)cc12  genotype 1b (Con-1) HCV replicon in Huh-7 cells    pEC50            8.00
11  CNC(=O)c1c(-c2ccc(F)cc2)oc2nc(CCC(F)(F)F)c(-c3ccc(OC)c(C(=O)NC45CC(C4)C5)c3)cc12  genotype 1b (Con-1) HCV replicon in Huh-7 cells    pEC50            8.03
12  CNC(=O)c1c(-c2ccc(F)cc2)oc2nc(NCC(F)(F)F)c(-c3cccc(C(=O)NC45CC(C4)C5)c3)cc12  genotype 1b (Con-1) HCV replicon in Huh-7 cells    pEC50            8.45
13  CNC(=O)c1c(-c2ccc(F)cc2)oc2nc(NCC(F)F)c(-c3ccc(OC)c(C(=O)NC45CC(C4)C5)c3)cc12  genotype 1b (Con-1) HCV replicon in Huh-7 cells    pEC50            8.21
14  CNC(=O)c1c(-c2ccc(F)cc2)oc2cc(CCC(F)(F)F)c(-c3ccc(F)c(C(=O)NC45CC(C4)C5)c3)cc12  genotype 1b (Con-1) HCV replicon in Huh-7 cells    pEC50            8.00
15  CNC(=O)c1c(-c2ccc(F)cc2)oc2cc(N)c(-c3ccc(OC)c(C(=O)NC45CC(C4)C5)c3)cc12  genotype 1b (Con-1) HCV replicon in Huh-7 cells    pEC50            8.00
16  CCCc1cc2oc(-c3ccc(F)cc3)c(C(=O)NC)c2cc1-c1cc(C(=O)NC23CC(C2)C3)c(OC)cc1C  genotype 1b (Con-1) HCV replicon in Huh-7 cells    pEC50            7.52
17  CCCc1cc2oc(-c3ccc(F)cc3)c(C(=O)NC)c2cc1-c1cc(C(=O)NC23CC(C2)C3)c(F)cc1C  genotype 1b (Con-1) HCV replicon in Huh-7 cells    pEC50            7.52
18  CNC(=O)c1c(-c2ccc(F)cc2)oc2cc(CC(=O)N(C)C)c(-c3cccc(C(=O)NC45CC(C4)C5)c3)cc12  genotype 1b (Con-1) HCV replicon in Huh-7 cells    pEC50            6.51
19  CCCc1cc2oc(-c3ccc(F)cc3)c(C(=O)NC)c2cc1-c1cccc(C(=O)NC23CC(C2)C3)c1  genotype 1b (Con-1) HCV replicon in Huh-7 cells    pEC50            8.24
20  CNC(=O)c1c(-c2ccc(F)cc2)oc2cc(CS(C)(=O)=O)c(-c3ccc(F)c(C(=O)NC45CC(C4)C5)c3)cc12  genotype 1b (Con-1) HCV replicon in Huh-7 cells    pEC50            7.15
21  CNC(=O)c1c(-c2ccc(F)cc2)oc2cc(COC)c(-c3cccc(C(=O)NC45CC(C4)C5)c3)cc12  genotype 1b (Con-1) HCV replicon in Huh-7 cells    pEC50            8.21
22  CNC(=O)c1c(-c2ccc(F)cc2)oc2cc(CC(N)=O)c(-c3cccc(C(=O)NC45CC(C4)C5)c3)cc12  genotype 1b (Con-1) HCV replicon in Huh-7 cells    pEC50            7.70
23  CNC(=O)c1c(-c2ccc(F)cc2)oc2nc(NCC(F)F)c(-c3ccc(F)c(C(=O)NC45CC(C4)C5)c3)cc12  genotype 1b (Con-1) HCV replicon in Huh-7 cells    pEC50            8.67
24  CNC(=O)c1c(-c2ccc(F)cc2)oc2cc(COC)c(-c3cc(C(=O)NC45CC(C4)C5)c(OC)cc3C)c(F)c12  genotype 1b (Con-1) HCV replicon in Huh-7 cells    pEC50            7.52
25  CNC(=O)c1c(-c2ccc(F)cc2)oc2cc(CCC(F)(F)F)c(-c3cccc(C(=O)NC45CC(C4)C5)c3)c(F)c12  genotype 1b (Con-1) HCV replicon in Huh-7 cells    pEC50            8.00
26  CNC(=O)c1c(-c2ccc(F)cc2)oc2nc(CCC(F)(F)F)c(-c3ccc(F)c(C(=O)NC45CC(C4)C5)c3)cc12  genotype 1b (Con-1) HCV replicon in Huh-7 cells    pEC50            8.30
27  CNC(=O)c1c(-c2ccc(F)cc2)oc2cc(CCCF)c(-c3cccc(C(=O)NC45CC(C4)C5)c3)cc12  genotype 1b (Con-1) HCV replicon in Huh-7 cells    pEC50            8.48
28  CNC(=O)c1c(-c2ccc(F)cc2)oc2nc(OC)c(-c3ccc(F)c(C(=O)NC45CC(C4)C5)c3)cc12  genotype 1b (Con-1) HCV replicon in Huh-7 cells    pEC50            7.70
29  CNC(=O)c1c(-c2ccc(F)cc2)oc2cc(CC(N)=O)c(-c3ccc(F)c(C(=O)NC45CC(C4)C5)c3)cc12  genotype 1b (Con-1) HCV replicon in Huh-7 cells    pEC50            8.00
